System: RPMI-8226 leukemia
Assay: NCI-60 one-dose screen, 48 h
Settings: 10 µM unless noted
Protocol: Growth inhibition of the RPMI-8226 human tumor cell line is measured as a screen for anti-cancer activity. Cells are grown in 96 well plates and exposed to the test compound for 48 hours. Compounds are tested at a single concentration, which is 10^-5 M for most compounds. The reported endpoint is percent growth (GI% or GIPRCNT), where numbers from 0 - 100% represent growth inhibition, and numbers from -100% - 0 represent cell death. For example, a value of 40 represents 60% growth inhibition. […]
This is part of a sample that, as a whole, favours compounds with a hit. Of some 83,000 tested, about 20% had one in any assay. Activity calls are given as the source filed them. Rule for the calls: active = growth percent below 10; inactive = the rest.
Give one outcome, nothing more. List: active, inactive

Reference set (2 entries):
>>> classification("O=S(=O)(NCCCNc1cc(-c2cn(-c3ccccc3)nc2-c2ccccc2)ccn1)c1ccc(C(F)(F)F)cc1")
"inactive"
>>> classification("Cc1cc(N/N=C/c2nc(-c3ccc(Cl)cc3)oc2C)c2cc(Br)ccc2n1")
"active"

Asked: For Cc1ccn2c(-c3csc(Nc4cccc(O)c4)n3)c(C)nc2c1 , which call appears in the assay record?
Given back: active

Asked: Continue with CC[C@]12C=CCN3CC[C@@]4(c5ccc(OC)cc5N(C)[C@H]4[C@@](O)(C(=O)OC)[C@@H]1OC(=O)CCC(=O)N[C@@H](Cc1c[nH]c4ccccc14)C(=O)OC)[C@@H]32
Given back: active

Asked: Continue with Cc1csc2ccc(Cl)cc12
Given back: inactive

Asked: Continue with N#Cc1c2c(nc3n[nH]c(N)c13)CCCC2
Given back: inactive

Asked: Continue with Cc1cc2cc3cc(C)c(N(C)C)cc3nc2cc1N(C)C
Given back: active

Asked: Continue with CCOC(=O)/C=C/C(=O)[C@H](CC(C)C)NC(=O)[C@H](Cc1ccccc1)NC(=O)OCc1ccccc1
Given back: active

Asked: Continue with COc1ccc(CCN2CCCn3c2nc2ccccc2c3=O)cc1
Given back: inactive

Asked: Continue with COc1cc(C2CC(=O)Nc3c2c(C)nn3-c2nc3ccccc3[nH]2)cc(OC)c1OC (centres undefined)
Given back: inactive

Asked: Continue with Cc1ccc(Nc2c(C(N)=O)cnc3ccc(-c4csc(N)n4)cc23)cc1
Given back: inactive

Asked: Continue with COc1ccc(-c2nc(Nc3cc(C)[nH]n3)c3ccccc3n2)cc1
Given back: inactive

Asked: Continue with O=[N+]([O-])c1cccc(-c2nc3sccn3c2-c2ccnc(NCCCNS(=O)(=O)c3ccc(F)cc3)n2)c1
Given back: active

Asked: Continue with COc1cccc(-c2cn3c(ccc4ccccc43)n2)c1
Given back: inactive

Asked: Continue with CCCCCCCCCC(=O)Oc1ccc(/C(=C(/C)Cc2cccc(OC)c2)c2ccc(OCCN(C)C)cc2)cc1
Given back: inactive

Asked: Continue with CC1(C)CC(=O)C(c2c(-c3ccccc3)[nH]c3[nH]c(=S)[nH]c(=O)c23)=C(O)C1
Given back: inactive

Asked: Continue with O=C(CO[N+](=O)[O-])Nc1ccc(C(=O)/C=C/c2ccc3c(c2)OCO3)cc1
Given back: inactive

Asked: Continue with C[C@@H]1CC[C@@H]2[C@@H]1[C@H](OC(=O)/C=C/c1ccccc1)[C@]1(C3CCCCC3)C[C@@H](OC(=O)CO)[C@@]2(C)O1
Given back: inactive

Asked: Continue with COc1ccc(-c2cn3c(-c4ccc(OC)cc4)cnc3c(Oc3ccc4c(C)cc(=O)oc4c3)n2)cc1
Given back: inactive
